target: PI3Kβ (complex of human p110β and human p85α) (Homo sapiens (Human), UniProt P42338); experiment: PI3Kβ kinase assay (HTRF-based PI3K inhibition assay); conditions: 10 μM ATP, 10 μM PIP2, 20 min at 22° C.; read-out: average IC50 in the PI3K beta biochemical assay;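 further: Kinase-made PIP3 detected by HTRF, displacing biotinylated PIP3 tracer from a complex of Europium anti-GST antibody, GST-fused PH domain and Streptavidin-APC, read as Europium-to-APC energy transfer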
Sequence (P42338 whole entry, the tested form may be a part): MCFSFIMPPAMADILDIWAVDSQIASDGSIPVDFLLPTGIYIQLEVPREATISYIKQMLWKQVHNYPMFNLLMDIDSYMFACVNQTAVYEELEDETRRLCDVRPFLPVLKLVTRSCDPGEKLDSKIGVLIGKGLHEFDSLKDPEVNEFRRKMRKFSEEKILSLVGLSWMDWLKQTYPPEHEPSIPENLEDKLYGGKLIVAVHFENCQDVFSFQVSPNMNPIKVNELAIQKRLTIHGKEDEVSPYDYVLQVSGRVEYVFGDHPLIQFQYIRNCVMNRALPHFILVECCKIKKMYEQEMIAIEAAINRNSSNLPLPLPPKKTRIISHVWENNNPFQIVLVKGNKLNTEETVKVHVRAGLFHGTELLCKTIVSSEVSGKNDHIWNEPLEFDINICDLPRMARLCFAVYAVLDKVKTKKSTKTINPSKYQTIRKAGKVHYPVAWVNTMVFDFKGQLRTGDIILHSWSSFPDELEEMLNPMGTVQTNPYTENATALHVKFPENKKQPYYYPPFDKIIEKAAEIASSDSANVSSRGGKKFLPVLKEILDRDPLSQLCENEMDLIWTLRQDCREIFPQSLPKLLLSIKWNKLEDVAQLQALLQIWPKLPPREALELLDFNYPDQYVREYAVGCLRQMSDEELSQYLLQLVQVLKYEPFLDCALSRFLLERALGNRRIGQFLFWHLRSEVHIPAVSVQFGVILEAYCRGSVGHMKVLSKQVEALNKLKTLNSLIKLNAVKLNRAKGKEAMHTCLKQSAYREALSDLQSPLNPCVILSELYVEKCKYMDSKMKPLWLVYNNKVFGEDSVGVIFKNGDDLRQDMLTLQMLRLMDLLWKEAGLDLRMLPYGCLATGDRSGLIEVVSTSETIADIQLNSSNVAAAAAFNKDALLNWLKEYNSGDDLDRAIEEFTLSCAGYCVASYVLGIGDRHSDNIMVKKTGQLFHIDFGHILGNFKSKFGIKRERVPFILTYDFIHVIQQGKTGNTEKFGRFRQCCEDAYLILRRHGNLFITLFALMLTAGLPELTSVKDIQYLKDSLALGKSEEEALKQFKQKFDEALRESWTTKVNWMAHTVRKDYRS
Sequence (P27986 whole entry partner, the tested form may be a part): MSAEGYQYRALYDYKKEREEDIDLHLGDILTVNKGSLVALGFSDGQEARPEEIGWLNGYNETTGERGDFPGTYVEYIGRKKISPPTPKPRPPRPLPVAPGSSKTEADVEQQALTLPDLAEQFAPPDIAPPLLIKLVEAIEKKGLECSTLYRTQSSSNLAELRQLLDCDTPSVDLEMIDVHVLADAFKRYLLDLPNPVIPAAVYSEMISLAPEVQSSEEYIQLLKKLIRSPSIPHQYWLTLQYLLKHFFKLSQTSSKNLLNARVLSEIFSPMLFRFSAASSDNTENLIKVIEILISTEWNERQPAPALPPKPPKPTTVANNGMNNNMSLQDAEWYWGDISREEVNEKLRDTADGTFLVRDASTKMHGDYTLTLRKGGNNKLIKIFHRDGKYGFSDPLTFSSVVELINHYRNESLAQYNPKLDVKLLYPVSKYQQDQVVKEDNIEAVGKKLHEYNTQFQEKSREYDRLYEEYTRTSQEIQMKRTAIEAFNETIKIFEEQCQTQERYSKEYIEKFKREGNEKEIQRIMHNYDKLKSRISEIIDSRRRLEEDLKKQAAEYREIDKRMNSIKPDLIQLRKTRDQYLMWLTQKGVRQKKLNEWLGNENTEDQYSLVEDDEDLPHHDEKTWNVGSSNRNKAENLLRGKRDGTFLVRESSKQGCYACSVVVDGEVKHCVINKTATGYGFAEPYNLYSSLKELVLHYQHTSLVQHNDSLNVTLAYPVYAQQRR
readout: IC50

COc1c(OCC(O)CN(C)C)ccc2c1N=C(NC(=O)c1cccnc1)N1CCN=C21 (stereo not drawn)    10 to 50 nM
COc1c(OCC(O)CN2CCOCC2)ccc2c1N=C(NC(=O)c1ccc(N)nc1)N1CCN=C21 (stereo not drawn)    10 to 50 nM
COc1c(OC[C@H](O)CN(C(C)C)C(C)C)ccc2c1N=C(NC(=O)c1cncs1)N1CCN=C21    10 to 50 nM
COc1c(OCC(O)CN2CCOCC2)ccc2c1N=C(NC(=O)c1cnc(N)nc1)N1CCN=C21 (stereo not drawn)    < 10 nM
COc1c(OC[C@H](O)CN(C)C)ccc2c1N=C(NC(=O)c1cnc(N)nc1)N1CCN=C21    < 10 nM

Bench note, PI3Kβ (complex of human p110β and human p85α) (Homo sapiens (Human), UniProt P42338): `COc1c(OC[C@H](O)CN2CCOCC2)ccc2c1N=C(NC(=O)c1cncs1)N1CCN=C21` , IC50 reads 10 to 50 nM

Form field, IC50 with PI3Kβ (complex of human p110β and human p85α) (Homo sapiens (Human), UniProt P42338), item `COc1c(OC[C@H](O)CN2CCOCC2)ccc2c1N=C(NC(=O)c1cnc3[nH]cnc3c1)N1CCN=C21` : 10 to 50 nM

IC50 of `COc1c(OC[C@H](O)CN2CCOCC2)ccc2c1N=C(NC(=O)c1ccc(N)nc1C)N1CCN=C21` , assay on PI3Kβ (complex of human p110β and human p85α) (Homo sapiens (Human), UniProt P42338), is 10 to 50 nM

====

# inhibition at 0.93 µM values compiled below
target: PI3Kα (complex of human p110α and human p85α) (Homo sapiens (Human)); experiment: PI3Kα kinase assay (HTRF-based PI3K inhibition assay); type: biochemical; details: 0.93 μM compound; read-out: PI3K alpha average % Inhibition at 0.93 μM;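 further: PIP3 product detected by HTRF, reading resonance energy transfer from Europium-labeled anti-GST antibody to Streptavidin-APC, as displacement of biotinylated PIP3 tracer from the GST-PH domain complex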
Sequence (P42336 whole entry, the tested form may be a part): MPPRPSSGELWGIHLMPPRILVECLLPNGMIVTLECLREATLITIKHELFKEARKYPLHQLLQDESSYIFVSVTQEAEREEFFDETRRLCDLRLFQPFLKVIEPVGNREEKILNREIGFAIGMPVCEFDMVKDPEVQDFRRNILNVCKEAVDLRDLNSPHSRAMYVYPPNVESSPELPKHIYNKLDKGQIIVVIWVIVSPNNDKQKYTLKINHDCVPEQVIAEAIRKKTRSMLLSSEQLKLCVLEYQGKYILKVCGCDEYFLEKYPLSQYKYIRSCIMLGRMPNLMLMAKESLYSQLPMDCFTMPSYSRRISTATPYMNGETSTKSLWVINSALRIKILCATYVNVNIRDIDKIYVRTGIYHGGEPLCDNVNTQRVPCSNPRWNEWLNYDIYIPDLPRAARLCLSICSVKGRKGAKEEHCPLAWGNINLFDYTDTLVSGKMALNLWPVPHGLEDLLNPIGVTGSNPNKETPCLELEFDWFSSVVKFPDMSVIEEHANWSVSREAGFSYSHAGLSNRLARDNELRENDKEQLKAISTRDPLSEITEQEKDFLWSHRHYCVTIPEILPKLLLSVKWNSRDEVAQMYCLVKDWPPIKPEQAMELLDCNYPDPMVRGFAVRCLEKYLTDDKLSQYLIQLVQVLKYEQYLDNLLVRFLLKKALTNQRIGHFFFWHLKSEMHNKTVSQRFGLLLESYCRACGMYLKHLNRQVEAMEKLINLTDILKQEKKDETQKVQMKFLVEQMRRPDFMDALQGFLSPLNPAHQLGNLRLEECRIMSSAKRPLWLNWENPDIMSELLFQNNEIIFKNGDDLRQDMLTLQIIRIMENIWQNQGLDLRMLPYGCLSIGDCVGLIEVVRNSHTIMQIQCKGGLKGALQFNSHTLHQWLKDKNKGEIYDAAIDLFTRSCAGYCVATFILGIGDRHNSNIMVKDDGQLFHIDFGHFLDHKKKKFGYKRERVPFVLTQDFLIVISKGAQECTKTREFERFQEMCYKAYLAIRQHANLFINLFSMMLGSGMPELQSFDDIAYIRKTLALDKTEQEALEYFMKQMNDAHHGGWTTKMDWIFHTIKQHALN
Sequence (P27986 whole entry partner, the tested form may be a part): as the sequence (P27986 whole entry partner, the tested form may be a part) above
A number alone suffices; assume %.

COc1c(OC[C@H](O)CN(C(C)C)C(C)C)ccc2c1N=C(NC(=O)c1cccnc1)N1CCN=C21    104

The molecule identified as `COc1c(OC[C@H](O)CN2CCOCC2)ccc2c1N=C(NC(=O)c1cncs1)N1CCN=C21` registered its inhibition at 0.93 µM at 96.1

Recorded result, `COc1c(OC[C@@H](O)CN2CCOCC2)ccc2c1N=C(NC(=O)c1cccnc1)N1CCN=C21` , inhibition at 0.93 µM: 103

Memo: `COc1c(OC[C@H](O)CN2CCOCC2)ccc2c1N=C(NC(=O)c1sc(N)nc1C)N1CCN=C21` , reported inhibition at 0.93 µM: 110

The molecule identified as COc1c(OCC(O)CN2CCOCC2)ccc2c1N=C(NC(=O)c1cnc(N)nc1)N1CCN=C21 (stereo not shown) registered its inhibition at 0.93 µM at 92.7

// inhibition at 0.93 µM lookup, molecule = `COc1c(OC[C@H](O)CN2CCCC2)ccc2c1N=C(NC(=O)c1cccnc1C)N1CCN=C21` , result: 96.9

Reported inhibition at 0.93 µM ( `COc1c(OC[C@H](O)CN2CCOCC2)ccc2c1N=C(NC(=O)c1ccc(N)nc1C)N1CCN=C21` ) = 105

So, `COc1c(OC[C@H](O)CN2CCCCC2)ccc2c1N=C(NC(=O)c1cccnc1)N1CCN=C21` ? Its inhibition at 0.93 µM was 104

The reported value for `COc1c(OC[C@H](O)CN2CCOCC2)ccc2c1N=C(NC(=O)c1cccnc1)N1CCN=C21` in terms of inhibition at 0.93 µM is 97.6

The molecule `COc1c(OC[C@H](O)CN2CCCC2)ccc2c1N=C(NC(=O)c1cnco1)N1CCN=C21` showed inhibition at 0.93 µM equal to 88

According to the records, this molecule `COc1c(OC[C@H](O)CN2CCC2)ccc2c1N=C(NC(=O)c1cccnc1)N1CCN=C21` displays inhibition at 0.93 µM of 99.5

Quick note, inhibition at 0.93 µM for `COc1c(OC[C@H](O)CN2CCCC2)ccc2c1N=C(NC(=O)c1cncs1)N1CCN=C21` landed at 92.4

# inhibition at 0.93 µM (molecule: `COc1c(OC[C@H](O)CN2C[C@@H](C)O[C@@H](C)C2)ccc2c1N=C(NC(=O)c1cccnc1)N1CCN=C21` ) is 99.8

molecule `COc1c(OC[C@H](O)CN(C)C)ccc2c1N=C(NC(=O)c1cccnc1)N1CCN=C21` , inhibition at 0.93 µM observed: 82

Form: molecule = `COc1c(OC[C@H](O)CN(C)C)ccc2c1N=C(NC(=O)c1cnc(N)nc1)N1CCN=C21` ; inhibition at 0.93 µM = 102

Recorded result, COc1c(OCC(O)CN2CCSCC2)ccc2c1N=C(NC(=O)c1cccnc1)N1CCN=C21 (stereo not shown) , inhibition at 0.93 µM: 91.2
